These data points were gathered from patent US10179779B2.

experiment.summary: Hygroscopicity study by dynamic vapor sorption (DVS) analysis
Type: physicochemical
assay.setup: 95% RH, 25° C., DVS
Protocol: Hygroscopicity study is performed using Surface Measurement Systems DVS-1. The sample is placed on a microbalance in the instrument and the weight change during the sorption/desorption cycle at 25° C. is monitored. One of the sorption/desorption programs consists of a sorption scan from 0 to 95% relative humidity (RH) and a desorption scan from 95 to 10% RH. […] At the end of the DVS experiment the sample is measured by PXRD. […]
Below, each entry is listed with its recorded weight gain %.
Respond with the bare value in %.

1. O=C(O)C1(CN2CCC(COc3noc4cccc(OCC(F)(F)F)c34)CC2)CCOCC1 [Polymorph Form V]
1.1
2. O=C(O)C1(CN2CCC(COc3noc4cccc(OCC(F)(F)F)c34)CC2)CCOCC1 [Polymorph Form III]
0.60
3. O=C(O)C1(CN2CCC(COc3noc4cccc(OCC(F)(F)F)c34)CC2)CCOCC1 [Polymorph Form I]
14

Consider the additional compound presented here.
Entry O=C(O)C1(CN2CCC(COc3noc4cccc(OCC(F)(F)F)c34)CC2)CCOCC1 [White solid disclosed in the prior art WO2006/090224] [reference compound] : reported weight gain % = ?
15

====

Below, each entry is listed with its recorded weight gain %.
experiment.summary: Hygroscopicity study by dynamic vapor sorption (DVS) analysis
Type: physicochemical
assay.setup: 90% RH, 25° C., DVS
Respond with the bare value in %.

Entry O=C(O)C1(CN2CCC(COc3noc4cccc(OCC(F)(F)F)c34)CC2)CCOCC1 [Polymorph Form I] : reported weight gain % = ?
0.089

Entry O=C(O)C1(CN2CCC(COc3noc4cccc(OCC(F)(F)F)c34)CC2)CCOCC1 [Polymorph Form III] : reported weight gain % = ?
0.53

Entry O=C(O)C1(CN2CCC(COc3noc4cccc(OCC(F)(F)F)c34)CC2)CCOCC1 [White solid disclosed in the prior art WO2006/090224] [reference compound] : reported weight gain % = ?
5.3

Entry O=C(O)C1(CN2CCC(COc3noc4cccc(OCC(F)(F)F)c34)CC2)CCOCC1 [Polymorph Form V] : reported weight gain % = ?
0.85

====

experiment.summary: Hygroscopicity study by dynamic vapor sorption (DVS) analysis
Type: physicochemical
assay.setup: 85% RH, 25° C., DVS
Below, each entry is listed with its recorded weight gain %.
Respond with the bare value in %.

Some compounds with recorded weight gain %:
1) O=C(O)C1(CN2CCC(COc3noc4cccc(OCC(F)(F)F)c34)CC2)CCOCC1 [White solid disclosed in the prior art WO2006/090224] [reference compound]
0.99
2) O=C(O)C1(CN2CCC(COc3noc4cccc(OCC(F)(F)F)c34)CC2)CCOCC1 [Polymorph Form V]
0.74
3) O=C(O)C1(CN2CCC(COc3noc4cccc(OCC(F)(F)F)c34)CC2)CCOCC1 [Polymorph Form III]
0.48

Entry O=C(O)C1(CN2CCC(COc3noc4cccc(OCC(F)(F)F)c34)CC2)CCOCC1 [Polymorph Form I] : reported weight gain % = ?
0.065
